Value source: patent US10899758B2

Hi there, I'd appreciate the recorded pIC50 for every entry that follows.
Molecular target: menin/MLL binding (biotinylated wild-type or mutated menin and MLL-AF9 fusion protein) (Homo sapiens)
Construct: biotinylated (1) wild-type menin or (2) mutated menin (described in Nature (2012) Vol. 482, pp. 542-548); fused on or other part: Biotin attached chemically (Sulfo-NHS-Biotin); no fused second protein is printed for menin
Sequence (O00255 1-459 limits assumed, change not shown): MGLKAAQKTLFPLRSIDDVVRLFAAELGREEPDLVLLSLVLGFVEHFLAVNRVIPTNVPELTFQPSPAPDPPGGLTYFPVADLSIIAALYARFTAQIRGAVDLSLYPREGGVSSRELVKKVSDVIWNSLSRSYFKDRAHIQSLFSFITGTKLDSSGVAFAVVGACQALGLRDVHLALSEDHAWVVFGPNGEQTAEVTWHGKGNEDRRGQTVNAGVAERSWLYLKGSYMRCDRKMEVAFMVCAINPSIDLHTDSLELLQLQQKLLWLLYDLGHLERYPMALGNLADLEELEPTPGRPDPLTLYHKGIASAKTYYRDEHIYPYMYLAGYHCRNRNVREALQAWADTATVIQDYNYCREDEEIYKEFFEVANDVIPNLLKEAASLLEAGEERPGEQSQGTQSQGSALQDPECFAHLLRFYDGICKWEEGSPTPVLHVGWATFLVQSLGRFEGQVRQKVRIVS
Test: Assay 1 (Binding Assay): AlphaLISA menin/MLL binding
Conditions: 5 nM biotinylated menin, MLL-AF9-FLAG lysate
pIC50: −log10 of the molar value.

Quick check: pIC50 of CC(C)N(C)C(=O)c1cc(F)ccc1-n1cc(C2CCC(Oc3ccccc3)CC2)c2ccncc21 (centres unmarked) [Example 59] ? 6.00 to 7.00

Quick check: pIC50 of CC(C)N(C)C(=O)c1cc(F)ccc1-n1cc([C@H]2CC[C@@H](N3CC(CO)C3)CC2)c2ccncc21 [Example 99] ? 6.00 to 7.00

Quick check: pIC50 of CC(C)N(C)C(=O)c1cc(F)ccc1-n1cc(C2CCN(Cc3ccc(Cl)cc3)CC2)c2ccncc21 [Example 10] ? > 7.00

Quick check: pIC50 of CC(C)N(C)C(=O)c1cc(F)ccc1-n1cc(C2CCCN(Cc3ccc4c(c3)[nH]c(=O)n4CCO)C2)c2ccncc21 (single isomer, unassigned) [Example 44B] ? > 7.00

Quick check: pIC50 of CC(C)N(C)C(=O)c1cc(F)ccc1-n1cc(C2CCN(C[C@H]3CC[C@@H](O)CC3)CC2)c2ccncc21 [Example 27A] ? > 7.00

Quick check: pIC50 of CC(C)N(C)C(=O)c1cc(F)ccc1-n1cc(C2CCN(C)CC2)c2ccncc21 [Example 17] ? 6.00 to 7.00

Quick check: pIC50 of CC(C)N(C)C(=O)c1cc(F)ccc1-n1cc(C2CCN(CC[C@H]3CC[C@H](NC(=O)OC(C)(C)C)CC3)CC2)c2ccncc21 [Example 18A] ? > 7.00

Quick check: pIC50 of CC(=O)N[C@H]1CC[C@H](CN2CCC(c3cn(-c4ccc(F)cc4C(=O)N(C)C(C)C)c4cnccc34)CC2)CC1 [Example 20] ? > 7.00

Quick check: pIC50 of Fc1ccc(-n2cc(C3CCN(Cc4ccc5[nH]ccc5c4)CC3)c3ncncc32)cc1 [Example 69] ? 6.00 to 7.00

Quick check: pIC50 of CC(C)N(C)C(=O)c1cc(F)ccc1-n1c(=O)n(C2CCN(Cc3ccc4[nH]c(=O)[nH]c4c3)CC2)c2ccncc21 [Example 79] ? ≤ 6.00

Quick check: pIC50 of CC(C)N(C)C(=O)c1cc(F)ccc1-n1cc(C2CCN(CC3CC(F)(F)C3)CC2)c2ccncc21 [Example 16] ? > 7.00

Quick check: pIC50 of CC(C)N(C)C(=O)c1cc(F)ccc1-n1cc(C2CCN(Cc3ccc4cc(C#N)[nH]c4c3)CC2)c2ccncc21 [Example 8] ? > 7.00

Quick check: pIC50 of Cc1ccccc1CN1CCC(c2cn(-c3ccc(F)cc3C(=O)N(C)C(C)C)c3cnccc23)CC1 [Example 14] ? > 7.00

Quick check: pIC50 of CC(C)N(C)C(=O)c1cc(F)ccc1-n1cc([C@H]2CC[C@H](N3CC[C@H](CO)C3)CC2)c2ccncc21 [Example 104] ? > 7.00
